- Test Name: Thermal stability by differential scanning calorimetry
- Format: physicochemical
- Conditions Used: cysteine-NEM conjugates, DSC 25-100° C., 1° C. per minute
// values below are reported First Scan Tm

| Molecule | First Scan Tm |
| --- | --- |
| S10C (protein, EGFR binding FN3 domain; EGFR-binding FN3 domain) chain 1: MLPAPKNLVVCEVTEDSARLSWDDPWAFYESFLIQYQESEKVGEAIVLTVPGSERSYDLTGLKPGTEYTVSIYGVHNVYKDTNMRGLPLSAIFTT chain 2: LPAPKNLVVCEVTEDSARLSWDDPWAFYESFLIQYQESEKVGEAIVLTVPGSERSYDLTGLKPGTEYTVSIYGVHNVYKDTNMRGLPLSAIFTT | 68 °C |
| T59C (protein, EGFR binding FN3 domain; EGFR-binding FN3 domain) chain 1: MLPAPKNLVVSEVTEDSARLSWDDPWAFYESFLIQYQESEKVGEAIVLTVPGSERSYDLCGLKPGTEYTVSIYGVHNVYKDTNMRGLPLSAIFTT chain 2: LPAPKNLVVSEVTEDSARLSWDDPWAFYESFLIQYQESEKVGEAIVLTVPGSERSYDLCGLKPGTEYTVSIYGVHNVYKDTNMRGLPLSAIFTT | 67 °C |
| S30C (protein, EGFR binding FN3 domain; EGFR-binding FN3 domain) chain 1: MLPAPKNLVVSEVTEDSARLSWDDPWAFYECFLIQYQESEKVGEAIVLTVPGSERSYDLTGLKPGTEYTVSIYGVHNVYKDTNMRGLPLSAIFTT chain 2: LPAPKNLVVSEVTEDSARLSWDDPWAFYECFLIQYQESEKVGEAIVLTVPGSERSYDLTGLKPGTEYTVSIYGVHNVYKDTNMRGLPLSAIFTT | 71 °C |

The measurements presented in this section are drawn from patent US10662235B2.
